Values were extracted from patent US20220056104A1.

Target: T1, DcR3 (UniProt O95407 30-300, limits assumed)
T1 construct: the construct is not described; also called decoy receptor DcR3; TNFRSF6B
T1 sequence (looked up): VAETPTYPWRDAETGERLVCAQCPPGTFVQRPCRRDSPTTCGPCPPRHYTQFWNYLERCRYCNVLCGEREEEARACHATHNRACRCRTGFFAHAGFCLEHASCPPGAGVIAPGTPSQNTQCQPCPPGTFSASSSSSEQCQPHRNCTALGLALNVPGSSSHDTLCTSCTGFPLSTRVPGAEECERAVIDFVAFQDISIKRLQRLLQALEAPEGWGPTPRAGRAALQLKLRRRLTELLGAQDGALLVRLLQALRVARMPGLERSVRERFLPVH
Assay: ELISA, DcR3
Quick reference for Rel EC50 among some binders

Use these answered entries as a reference point.
Rel EC50 recorded for this binder, TL1W105 (His-TEV-TL1A T185N) (ligand, also called TL1W105 (T185N)) HHHHHHENLYFQGLKGQEFAPSHQQVYAPLRADGDKPRAHLTVVRQTPTQHFKNQFPALHWEHELGLAFTKNRMNYTNKFLLIPESGDYFIYSQVTFRGMTSECSEIRQAGRPNKPDSITVVITKVNDSYPEPTQLLMGTKSVCEVGSNWFQPIYLGAMFSLQEGDKLMVNVSDISLVDYTKEDKTFFGAFLL , is 2.4 ratio (head: nM)

Rel EC50 recorded for this binder, TL1W102 (His-TEV-TL1A S176K) (ligand, also called TL1W102 (S176K)) HHHHHHENLYFQGLKGQEFAPSHQQVYAPLRADGDKPRAHLTVVRQTPTQHFKNQFPALHWEHELGLAFTKNRMNYTNKFLLIPESGDYFIYSQVTFRGMTSECSEIRQAGRPNKPDKITVVITKVTDSYPEPTQLLMGTKSVCEVGSNWFQPIYLGAMFSLQEGDKLMVNVSDISLVDYTKEDKTFFGAFLL , is 6.3 ratio (head: nM)

Rel EC50 recorded for this binder, TL1W106 (His-TEV-TL1A T185D) (ligand, also called TL1W106 (T185D)) HHHHHHENLYFQGLKGQEFAPSHQQVYAPLRADGDKPRAHLTVVRQTPTQHFKNQFPALHWEHELGLAFTKNRMNYTNKFLLIPESGDYFIYSQVTFRGMTSECSEIRQAGRPNKPDSITVVITKVDDSYPEPTQLLMGTKSVCEVGSNWFQPIYLGAMFSLQEGDKLMVNVSDISLVDYTKEDKTFFGAFLL , is 17.4 ratio (head: nM)

Rel EC50 recorded for this binder, TL1W134 (His-TEV-TL1A T239K) (ligand, also called TL1W134 (T239K)) HHHHHHENLYFQGLKGQEFAPSHQQVYAPLRADGDKPRAHLTVVRQTPTQHFKNQFPALHWEHELGLAFTKNRMNYTNKFLLIPESGDYFIYSQVTFRGMTSECSEIRQAGRPNKPDSITVVITKVTDSYPEPTQLLMGTKSVCEVGSNWFQPIYLGAMFSLQEGDKLMVNVSDISLVDYKKEDKTFFGAFLL , is 4.7 ratio (head: nM)

Rel EC50 recorded for this binder, TL1W29 (His-TEV-hTL1A 72-251 P189A) (ligand, also called TL1W29 (P189A)) HHHHHHENLYFQGLKGQEFAPSHQQVYAPLRADGDKPRAHLTVVRQTPTQHFKNQFPALHWEHELGLAFTKNRMNYTNKFLLIPESGDYFIYSQVTFRGMTSECSEIRQAGRPNKPDSITVVITKVTDSYAEPTQLLMGTKSVCEVGSNWFQPIYLGAMFSLQEGDKLMVNVSDISLVDYTKEDKTFFGAFLL , is 1.7 ratio (head: nM)

Rel EC50 recorded for this binder, TL1W122 (His-TEV-TL1A N207F) (ligand, also called TL1W122 (N207F)) HHHHHHENLYFQGLKGQEFAPSHQQVYAPLRADGDKPRAHLTVVRQTPTQHFKNQFPALHWEHELGLAFTKNRMNYTNKFLLIPESGDYFIYSQVTFRGMTSECSEIRQAGRPNKPDSITVVITKVTDSYPEPTQLLMGTKSVCEVGSFWFQPIYLGAMFSLQEGDKLMVNVSDISLVDYTKEDKTFFGAFLL , is 2.3 ratio (head: nM)

Rel EC50 recorded for this binder, TL1W78 (His-TEV-TL1A R103H) (ligand, also called TL1W78 (R103H)) HHHHHHENLYFQGLKGQEFAPSHQQVYAPLRADGDKPRAHLTVVHQTPTQHFKNQFPALHWEHELGLAFTKNRMNYTNKFLLIPESGDYFIYSQVTFRGMTSECSEIRQAGRPNKPDSITVVITKVTDSYPEPTQLLMGTKSVCEVGSNWFQPIYLGAMFSLQEGDKLMVNVSDISLVDYTKEDKTFFGAFLL , is 1.8 ratio (head: nM)

Rel EC50 recorded for this binder, TL1W88 (His-TEV-TL1A R156A) (ligand, also called TL1W88 (R156A)) HHHHHHENLYFQGLKGQEFAPSHQQVYAPLRADGDKPRAHLTVVRQTPTQHFKNQFPALHWEHELGLAFTKNRMNYTNKFLLIPESGDYFIYSQVTFAGMTSECSEIRQAGRPNKPDSITVVITKVTDSYPEPTQLLMGTKSVCEVGSNWFQPIYLGAMFSLQEGDKLMVNVSDISLVDYTKEDKTFFGAFLL , is 2.9 ratio (head: nM)

Rel EC50 recorded for this binder, TL1W97 (His-TEV-TL1A K173S) (ligand, also called TL1W97 (K173S)) HHHHHHENLYFQGLKGQEFAPSHQQVYAPLRADGDKPRAHLTVVRQTPTQHFKNQFPALHWEHELGLAFTKNRMNYTNKFLLIPESGDYFIYSQVTFRGMTSECSEIRQAGRPNSPDSITVVITKVTDSYPEPTQLLMGTKSVCEVGSNWFQPIYLGAMFSLQEGDKLMVNVSDISLVDYTKEDKTFFGAFLL , is 1.5 ratio (head: nM)

Rel EC50 recorded for this binder, TL1W93 (His-TEV-TL1A M158K) (ligand, also called TL1W93 (M158K)) HHHHHHENLYFQGLKGQEFAPSHQQVYAPLRADGDKPRAHLTVVRQTPTQHFKNQFPALHWEHELGLAFTKNRMNYTNKFLLIPESGDYFIYSQVTFRGKTSECSEIRQAGRPNKPDSITVVITKVTDSYPEPTQLLMGTKSVCEVGSNWFQPIYLGAMFSLQEGDKLMVNVSDISLVDYTKEDKTFFGAFLL , is 12.1 ratio (head: nM)

Pending binder:
Rel EC50 recorded for this binder, TL1W79 (His-TEV-TL1A R103E) (ligand, also called TL1W79 (R103E)) HHHHHHENLYFQGLKGQEFAPSHQQVYAPLRADGDKPRAHLTVVEQTPTQHFKNQFPALHWEHELGLAFTKNRMNYTNKFLLIPESGDYFIYSQVTFRGMTSECSEIRQAGRPNKPDSITVVITKVTDSYPEPTQLLMGTKSVCEVGSNWFQPIYLGAMFSLQEGDKLMVNVSDISLVDYTKEDKTFFGAFLL , is 1.5 ratio (head: nM)
